Assay: AUC in neutropenic rat at 10 mg/kg/day after 3 days
Assay type: ADME, organism-based
Conditions: plasma
Measurement Label: AUC at 72 h (µg·h/mL)

1) CC[C@H](C)C[C@H](C)CCCCCCCCC(=O)N[C@H]1C[C@@H](O)[C@@H](NCCN)NC(=O)[C@@H]2[C@@H](O)CCN2C(=O)[C@H]([C@H](O)CCN)NC(=O)[C@H]([C@H](O)[C@@H](O)c2ccc(O)cc2)NC(=O)[C@@H]2C[C@@H](O)CN2C(=O)[C@H]([C@@H](C)O)NC1=O | 549
